biological target: Full length (FL) 3-Phosphoglycerate Dehydrogenase (PHGDH) (Homo sapiens); construct: Full length (FL) 3-Phosphoglycerate Dehydrogenase (PHGDH) Diaphorase coupled assay (500 uM NAD); assay: Full length (FL) PHGDH Diaphorase coupled assay (500 uM NAD); assay type: biochemical; details: 5 nM PHGDH, 30° C., 60 minutes
Sequence (O43175 whole entry): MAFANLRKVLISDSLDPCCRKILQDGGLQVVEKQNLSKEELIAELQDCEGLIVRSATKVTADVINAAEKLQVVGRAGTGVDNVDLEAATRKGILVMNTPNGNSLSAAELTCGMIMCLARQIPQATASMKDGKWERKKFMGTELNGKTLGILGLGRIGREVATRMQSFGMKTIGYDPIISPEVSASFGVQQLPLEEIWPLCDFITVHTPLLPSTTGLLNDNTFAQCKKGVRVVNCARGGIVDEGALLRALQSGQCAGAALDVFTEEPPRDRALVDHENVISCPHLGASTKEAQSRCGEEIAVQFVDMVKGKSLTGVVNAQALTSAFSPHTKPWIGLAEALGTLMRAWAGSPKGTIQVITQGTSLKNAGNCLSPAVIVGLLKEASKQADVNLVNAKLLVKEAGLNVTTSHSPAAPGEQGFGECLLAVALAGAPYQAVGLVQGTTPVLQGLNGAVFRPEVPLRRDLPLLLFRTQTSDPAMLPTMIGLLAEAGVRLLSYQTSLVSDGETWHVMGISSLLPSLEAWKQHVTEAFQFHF
pIC50: −log10 of the molar value.
Reported pIC50 values for the following molecules.

# molecule, pIC50
records = [
    ("Cn1c(C(=O)N[C@H](CO)c2ccc(C3(C(=O)O)CC3)cc2)cc2c(Cl)c(Cl)ccc21", "6.00 to 8.00"),
    ("COc1cc2c(cc(C(=O)N[C@H](CO)c3ccc(C(=O)O)cc3C)n2C)c(Cl)c1C", "6.00 to 8.00"),
    ("CC(NC(=O)c1cc2c(Cl)c(Cl)ccc2n1C)c1ccc(C(=O)O)cc1Cl (stereo not shown)", "6.00 to 8.00"),
]

Read the next record carefully.
Exercise: Item CC(C)C(C(=O)O)c1ccc([C@@H](CO)NC(=O)c2cc3c(Cl)c(Cl)ccc3n2C)cc1 (single isomer, unassigned) [Compound I-54] : provide pIC50
Solution: 6.00 to 8.00

Provenance of the data: patent US11535593B2
